Tested on: P. falciparum strain TM90C2A
ASSAY OVERVIEW: labeled hypoxanthine susceptibility assay, P. falciparum TM90C2A
Assay type: cell-based, Plasmodium falciparum
MEASUREMENT CONTEXT: ratio of IC90 C2A to IC90 W2
Label y when CSI (C2A/W2) is strictly below 8; at or above that, label n.

[
  {
    "COMPOUND": "C=CCNCC(O)c1cc(C(F)(F)F)nc2c(C(F)(F)F)cccc12 (centres unmarked) [WR308255]",
    "LABEL": "n"
  },
  {
    "COMPOUND": "OC(c1cc(C(F)(F)F)nc2c(C(F)(F)F)cccc12)C1CCCCN1 (centres unmarked) [142490 (MQ)]",
    "LABEL": "y"
  },
  {
    "COMPOUND": "CC(C)CC(C)NCC(O)c1cc(C(F)(F)F)nc2c(C(F)(F)F)cccc12 (centres unmarked) [WR308413]",
    "LABEL": "y"
  },
  {
    "COMPOUND": "CNCC(O)c1cc(C(F)(F)F)nc2c(C(F)(F)F)cccc12 (centres unmarked) [WR308245]",
    "LABEL": "y"
  },
  {
    "COMPOUND": "CSCCCNCC(O)c1cc(C(F)(F)F)nc2c(C(F)(F)F)cccc12 (centres unmarked) [WR308278]",
    "LABEL": "y"
  }
]

Check if CSI (C2A/W2) falls below 8 for Cc1ccc(CNCC(O)c2cc(C(F)(F)F)nc3c(C(F)(F)F)cccc23)cc1 (racemic) [compound 308375] .
n

Check if CSI (C2A/W2) falls below 8 for N#CCCN(CC(O)c1cc(C(F)(F)F)nc2c(C(F)(F)F)cccc12)C1CCCCC1 (racemic) [compound 308486] .
n

Check if CSI (C2A/W2) falls below 8 for OC(CNCCc1ccccc1)c1cc(C(F)(F)F)nc2c(C(F)(F)F)cccc12 (racemic) [compound 308253] .
n

Check if CSI (C2A/W2) falls below 8 for OC(CNCCNCc1ccccc1)c1cc(C(F)(F)F)nc2c(C(F)(F)F)cccc12 (centres unmarked) [WR308396] .
y

Check if CSI (C2A/W2) falls below 8 for CCCNCC(O)c1cc(C(F)(F)F)nc2c(C(F)(F)F)cccc12 (racemic) [compound 183544] .
n

Check if CSI (C2A/W2) falls below 8 for CCC(CC)CNCC(O)c1cc(C(F)(F)F)nc2c(C(F)(F)F)cccc12 (centres unmarked) [WR308388] .
n

Check if CSI (C2A/W2) falls below 8 for OC(CNc1nc2ccccc2[nH]1)c1cc(C(F)(F)F)nc2c(C(F)(F)F)cccc12 (racemic) [compound 308491] .
y

Value source: paper PMC2833169
